Tested on: maximum electroshock seizure (MES) model
Experiment: Maximum electroshock seizure (MES) model test
Type: in vivo, mice
Conditions: 100 mg/kg oral, Slc: ddY male mice, 3 per group, electrical stimulation 1 hour after administration; inhibition of hind limb extension
Description: In order to evaluate the antiepileptic activity of each drug, maximum electroshock seizure (MES) model, subcutaneously pentetrazol-injected model (scPTZ), and amygdala kindling model in rats were used because they show a good clinical prediction. Test 1: Test with Maximum Electroshock Seizure (MES) Model Test 1 evaluates the anticonvulsant action of medicaments. Animal model used herein represents the clinical phenotypes of generalized tonic seizure and secondarily generalized tonic-clonic seizure. […]

COMPOUND | MES (positive number/tested number)
CS(=O)(=O)c1ccc(-c2ccccc2CC(N)=O)cc1 | 0/3
NC(=O)[C@@H](O)c1ccccc1-c1cc(Cl)cc(Cl)c1 | 2/3
NC(=O)C(O)c1ccccc1-c1cccc(F)c1 (single isomer, unassigned) | 3/3
NC(=O)C(F)c1ccccc1-c1ccccc1 (single isomer, unassigned) [Example 210, 2-(Biphenyl-2-yl)-2-fluoroacetamide] | 3/3
NC(=O)C(O)c1ccccc1-c1ccccc1F (single isomer, unassigned) | 3/3
NC(=O)[C@@H](O)c1ccccc1-c1ccccc1 [Example 208, 2-(biphenyl-2-yl)-2S-hydroxyacetamide] | 3/3

###

system: maximum electroshock seizure (MES) model; test: Maximum electroshock seizure (MES) model test; format: in vivo, mice; conditions: Mus musculus, po, 1 h, 50 mg/kg oral, Slc: ddY male mice, 3 per group, electrical stimulation 1 hour after administration; inhibition of hind limb extension; read-out: MES (positive number/tested number) (converted)
Reported responders at 50 mg/kg by item:
PROPERTY_MEASURED: responders at 50 mg/kg (%)

MOLECULE | QUANTITATIVE_READOUT
CNC(=O)Cc1ccccc1-c1ccc(C(F)(F)F)cc1 [Example 2] | 100
CN(C)C(=O)Cc1ccccc1-c1ccc(C(F)(F)F)cc1 [Example 3] | 100
CNC(=O)Cc1ccccc1-c1ccccc1 [Example 54, 2-(biphenyl-2-yl)-N-methylacetamide] | 100
NC(=O)Cc1ccccc1-c1ccc(Cl)cc1Cl [Example 78, 2-(2′,4′-dichlorobiphenyl-2-yl)acetamide] | 100
NC(=O)Cc1ccccc1-c1cc(Cl)ccc1C(F)(F)F [Example 91] | 100
CCNC(=O)Cc1ccccc1-c1ccccc1F [Example 29] | 0
NC(=O)Cc1ccccc1-c1cc(F)cc(F)c1F [Example 67] | 66.7
NC(=O)C(O)c1ccccc1-c1ccccc1Cl (stereo not drawn) [Example 190] | 66.7
CNC(=O)Cc1ccccc1-c1ccccc1C(F)(F)F [Example 7] | 66.7

###

system: maximum electroshock seizure (MES) model; assay: Maximum electroshock seizure (MES) model test; assay type: in vivo, mice; details: Mus musculus, po, 1 h, 100 mg/kg oral, Slc: ddY male mice, 3 per group, electrical stimulation 1 hour after administration; inhibition of hind limb extension; read-out: MES (positive number/tested number) (converted)
PROPERTY_MEASURED: responders at 100 mg/kg (%)

COMPOUND | PROPERTY_MEASURED | QUANTITATIVE_READOUT
NC(=O)Cc1ccccc1-c1cc(F)cc(F)c1 [Example 153, 2-(3′,5′-difluorobiphenyl-2-yl)acetamide] | responders at 100 mg/kg | 66.7
NC(=O)Cc1ccccc1-c1ccc(F)c(Cl)c1 | responders at 100 mg/kg | 66.7
CN(C)C(=O)Cc1ccccc1-c1ccc(C(F)(F)F)cc1 | responders at 100 mg/kg | 100
NC(=O)Cc1ccccc1-c1cccc(C(F)(F)F)c1 | responders at 100 mg/kg | 66.7
NC(=O)Cc1ccccc1-c1cccc(Cl)c1F | responders at 100 mg/kg | 100
NC(=O)Cc1ccc(Cl)cc1-c1ccccc1 | responders at 100 mg/kg | 100
NC(=O)C(O)c1ccc(F)cc1-c1cccc(F)c1 (stereo not shown) | responders at 100 mg/kg | 100
NC(=O)Cc1ccccc1-c1ccc(OC(F)(F)F)cc1 | responders at 100 mg/kg | 100
CNC(=O)C(C)c1ccccc1-c1ccccc1 (stereo not shown) [Example 57, 2-(biphenyl-2-yl)-N-methyl propanamide] | responders at 100 mg/kg | 66.7
CNC(=O)Cc1cc(Cl)ccc1-c1ccccc1 | responders at 100 mg/kg | 100

###

Reported responders at 100 mg/kg by item:
test system: subcutaneously pentetrazol-injected model (scPTZ); experiment: Subcutaneously pentetrazol-injected model (scPTZ) test; format: in vivo, mice; settings: Mus musculus, po, 1 h, 100 mg/kg oral, Slc: ddY male mice, 3 per group, pentetrazol 85 mg/kg s.c. after 1 hour, observed 30 minutes for clonic convulsion; read-out: scPTZ (positive number/tested number) (converted)

MOLECULE | responders at 100 mg/kg (%)
NC(=O)Cc1cc(Cl)ccc1-c1cccc(F)c1 | 33.3
NC(=O)C1(c2ccccc2-c2ccccc2)CC1 | 66.7
NC(=O)Cc1cc(F)ccc1-c1ccc(Cl)cc1 | 0
NC(=O)Cc1ccccc1-c1ccccc1C(F)(F)F | 33.3
NC(=O)C(O)c1ccccc1-c1ccc(F)cc1 (centres unmarked) | 33.3
NC(=O)Cc1ccccc1-c1cccc(Br)c1 [Example 52, 2-(3′-bromobiphenyl-2-yl)acetamide] | 66.7
NC(=O)C(O)c1cc(F)ccc1-c1ccccc1F (centres unmarked) | 0
NC(=O)C(O)c1ccccc1-c1ccc(Cl)c(C(F)(F)F)c1 (centres unmarked) | 33.3
CNC(=O)C1(c2ccccc2-c2cccc(F)c2)CC1 | 66.7
COC(C(N)=O)c1ccccc1-c1cccc(F)c1 (centres unmarked) | 33.3
NC(=O)C(O)c1ccccc1-c1cc(F)ccc1Cl (centres unmarked) | 100
CNC(=O)C(F)c1ccccc1-c1ccccc1F (centres unmarked) | 33.3
CNC(=O)Cc1cc(Cl)ccc1-c1ccccc1 | 33.3
NC(=O)Cc1ccccc1-c1cc(F)cc(F)c1F | 66.7
CNC(=O)Cc1cc(F)ccc1-c1ccccc1F | 0
NC(=O)Cc1ccccc1-c1cccc(F)c1F [Example 20, 2-(2′,3′-difluorobiphenyl-2-yl)acetamide] | 66.7
CNC(=O)Cc1cc(Cl)ccc1-c1ccc(F)cc1 | 0
NC(=O)Cc1ccccc1-c1cc(F)cc(C(F)(F)F)c1 | 100
NC(=O)[C@H](O)c1ccccc1-c1cc(Cl)cc(Cl)c1 (single isomer, unassigned) | 66.7
NC(=O)Cc1cc(OC(F)(F)F)ccc1-c1ccccc1 | 66.7

###

tested on: maximum electroshock seizure (MES) model; experiment: Maximum electroshock seizure (MES) model test; assay type: in vivo, mice; conditions: Mus musculus, po, 1 h, 100 mg/kg oral, Slc: ddY male mice, 3 per group, electrical stimulation 1 hour after administration; inhibition of hind limb extension; read-out: MES (positive number/tested number) (converted)

COMPOUND | VALUE_UNIT | responders at 100 mg/kg
NC(=O)Cc1ccccc1-c1ccc(F)cc1 [Example 22, 2-(4′-fluorobiphenyl-2-yl)acetamide] | % | 100
CCNC(=O)Cc1ccccc1-c1ccccc1Cl | % | 100
CNC(=O)C(F)c1ccccc1-c1ccc(F)cc1 (centres unmarked) | % | 100
NC(=O)Cc1cc(F)ccc1-c1ccc(C(F)(F)F)cc1 | % | 100
NC(=O)Cc1cc(F)c(F)cc1-c1ccccc1 | % | 66.7
NC(=O)C(O)c1cc(F)ccc1-c1ccccc1F (centres unmarked) | % | 100
CCNC(=O)Cc1ccccc1-c1ccccc1C(F)(F)F | % | 100
NC(=O)Cc1ccccc1-c1ccc(F)c(F)c1F | % | 100
CNC(=O)Cc1ccc(Cl)cc1-c1ccccc1 | % | 100
NC(=O)Cc1ccccc1-c1ccc(F)cc1F | % | 100
O=C(Cc1ccccc1-c1ccccc1F)NCC1CC1 | % | 33.3
NC(=O)Cc1cc(F)ccc1-c1ccccc1 [Example 44, 2-(4-fluorobiphenyl-2-yl)acetamide] | % | 100
NC(=O)Cc1ccccc1-c1cc(Cl)cc(Cl)c1Cl | % | 100
Cc1ccc(-c2ccccc2)c(CC(N)=O)c1 | % | 0
NC(=O)C(F)(F)c1ccccc1-c1cccc(F)c1 | % | 100
CNC(=O)Cc1ccccc1-c1ccc(OC(F)(F)F)cc1 | % | 100
NC(=O)Cc1ccccc1-c1cc(F)cc(C(F)(F)F)c1 | % | 100
CNC(=O)Cc1cc(Cl)ccc1-c1ccc(C(F)(F)F)cc1 | % | 0
NC(=O)Cc1ccc([N+](=O)[O-])cc1-c1ccccc1F | % | 100
COC(C(N)=O)c1ccccc1-c1ccccc1 (centres unmarked) [Example 61, 2-(Biphenyl-2-yl)-2-methoxyacetamide] | % | 66.7

###

tested on: maximum electroshock seizure (MES) model; assay: Maximum electroshock seizure (MES) model test; assay type: in vivo, mice; conditions: Mus musculus, po, 1 h, 100 mg/kg oral, Slc: ddY male mice, 3 per group, electrical stimulation 1 hour after administration; inhibition of hind limb extension; read-out: MES (positive number/tested number) (converted)
PROPERTY_MEASURED: responders at 100 mg/kg (%)

COMPOUND | TEST_SYSTEM | PROPERTY_MEASURED | QUANTITATIVE_READOUT
NC(=O)C(O)c1ccccc1-c1cccc(F)c1 (single isomer, unassigned) [Example 211] | maximum electroshock seizure (MES) model | responders at 100 mg/kg | 100
CNC(=O)Cc1ccccc1-c1ccccc1 [Example 54, 2-(biphenyl-2-yl)-N-methylacetamide] | maximum electroshock seizure (MES) model | responders at 100 mg/kg | 100
NC(=O)C(O)c1ccccc1-c1cc(F)cc(Cl)c1 (single isomer, unassigned) [Example 218] | maximum electroshock seizure (MES) model | responders at 100 mg/kg | 100
COC(C(N)=O)c1ccccc1-c1ccc(F)cc1 (stereo not drawn) | maximum electroshock seizure (MES) model | responders at 100 mg/kg | 66.7
CN(C)C(=O)Cc1ccccc1-c1cccc(Cl)c1 | maximum electroshock seizure (MES) model | responders at 100 mg/kg | 66.7
NC(=O)C(O)c1ccc(F)cc1-c1cc(Cl)cc(Cl)c1 (stereo not drawn) | maximum electroshock seizure (MES) model | responders at 100 mg/kg | 100
CNC(=O)Cc1ccccc1-c1ccc(C(F)(F)F)cc1F | maximum electroshock seizure (MES) model | responders at 100 mg/kg | 66.7
CN(C)C(=O)Cc1ccccc1-c1ccccc1F | maximum electroshock seizure (MES) model | responders at 100 mg/kg | 100
CNC(=O)C(OC)c1ccccc1-c1ccccc1 (stereo not drawn) | maximum electroshock seizure (MES) model | responders at 100 mg/kg | 100
